# system: Peptide 1593 (…) (Mycobacterium tuberculosis)
# experimentalProtocol: ELISA, NNK clone supernatant on coated peptide (22 hits)
readoutType: ratio (OD450 to WT OD450)

Some solved entries appear below for comparison.
Which value of ratio (OD450 to WT OD450) has been reported for 65D3 chimeric Fab, NNK library L5 mutant S to F (VL S27F) (Fab, V domains shown) VH: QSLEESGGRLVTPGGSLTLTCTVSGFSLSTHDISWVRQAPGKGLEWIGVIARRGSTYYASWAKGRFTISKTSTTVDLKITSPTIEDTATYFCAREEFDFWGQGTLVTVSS VL: AVLTQTASPVSAAVGGTVTISCQSSQFVYNNKELSWFQQKPGQPPKLLISYASTLASGVPSRFKGSGSGTQFTLTISDLECDDAATYYCLGGYASTIDMWAFGGGTEVVVK in the records? 1.43 fold of WT

Which value of ratio (OD450 to WT OD450) has been reported for 65D3 chimeric Fab, NNK library L5 mutant S to Y (VL S27Y) (Fab, V domains shown) VH: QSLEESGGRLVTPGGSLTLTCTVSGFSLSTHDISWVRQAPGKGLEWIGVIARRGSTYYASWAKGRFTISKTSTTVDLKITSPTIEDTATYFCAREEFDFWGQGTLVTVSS VL: AVLTQTASPVSAAVGGTVTISCQSSQYVYNNKELSWFQQKPGQPPKLLISYASTLASGVPSRFKGSGSGTQFTLTISDLECDDAATYYCLGGYASTIDMWAFGGGTEVVVK in the records? 1.44 fold of WT

Which value of ratio (OD450 to WT OD450) has been reported for 65D3 chimeric Fab, NNK library L3 mutant S to A (VL S25A) (Fab, V domains shown) VH: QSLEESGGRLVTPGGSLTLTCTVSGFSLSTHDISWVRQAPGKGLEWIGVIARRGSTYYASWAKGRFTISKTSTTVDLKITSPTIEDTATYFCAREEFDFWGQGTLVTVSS VL: AVLTQTASPVSAAVGGTVTISCQSAQSVYNNKELSWFQQKPGQPPKLLISYASTLASGVPSRFKGSGSGTQFTLTISDLECDDAATYYCLGGYASTIDMWAFGGGTEVVVK in the records? 1.21 fold of WT

Which value of ratio (OD450 to WT OD450) has been reported for 65D3 chimeric Fab, NNK library L3 mutant S to K (VL S25K) (Fab, V domains shown) VH: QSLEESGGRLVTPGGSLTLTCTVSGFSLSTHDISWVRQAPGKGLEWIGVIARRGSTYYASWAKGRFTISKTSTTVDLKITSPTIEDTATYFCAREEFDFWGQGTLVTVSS VL: AVLTQTASPVSAAVGGTVTISCQSKQSVYNNKELSWFQQKPGQPPKLLISYASTLASGVPSRFKGSGSGTQFTLTISDLECDDAATYYCLGGYASTIDMWAFGGGTEVVVK in the records? 1.22 fold of WT

Continuing:
Which value of ratio (OD450 to WT OD450) has been reported for 65D3 chimeric Fab, NNK library L8 mutant N to R (VL N30R) (Fab, V domains shown) VH: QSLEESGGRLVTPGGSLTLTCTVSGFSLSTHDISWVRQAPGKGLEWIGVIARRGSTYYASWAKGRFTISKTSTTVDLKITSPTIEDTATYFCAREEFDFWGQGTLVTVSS VL: AVLTQTASPVSAAVGGTVTISCQSSQSVYRNKELSWFQQKPGQPPKLLISYASTLASGVPSRFKGSGSGTQFTLTISDLECDDAATYYCLGGYASTIDMWAFGGGTEVVVK in the records? 1.26 fold of WT

Origin of measurements: patent US12649778
